These entries and their values trace back to ChEMBL document CHEMBL1131723.

Tested on: Escherichia coli
Test: In vitro antibacterial activity against Escherichia coli UBMS 90-5 sensitive
Format: functional
measured.attribute: MIC (µg/mL)

Some solved entries appear below for comparison.
compound | MIC / µg/mL
CN(C)c1ccc(O)c2c1C[C@H]1C[C@H]3[C@H](N(C)C)C(O)=C(C(N)=O)C(=O)[C@@]3(O)C(O)=C1C2=O [MINOCYCLINE] | 16
CCCCNCC(=O)Nc1cc(N(C)C)c2c(c1O)C(=O)C1=C(O)[C@]3(O)C(O)=C(C(N)=O)C(=O)[C@@H](N(C)C)C3CC1C2 (stereo partly drawn) | 0.5
CN(C)c1cc(NC(=O)CNC2CC2)c(O)c2c1CC1CC3[C@H](N(C)C)C(=O)C(C(N)=O)=C(O)[C@@]3(O)C(=O)C1=C2O (stereo partly drawn) | 2
CN(C)c1cc(NC(=O)CNC(C)(C)C)c(O)c2c1C[C@H]1C[C@H]3[C@H](N(C)C)C(O)=C(C(N)=O)C(=O)[C@@]3(O)C(O)=C1C2=O [TIGECYCLINE] | 0.25
CNCC(=O)Nc1cc(N(C)C)c2c(c1O)C(=O)C1=C(O)[C@]3(O)C(O)=C(C(N)=O)C(=O)[C@@H](N(C)C)C3CC1C2 (stereo partly drawn) | 1
CCCCCCCCCCCNCC(=O)Nc1cc(N(C)C)c2c(c1O)C(=O)C1=C(O)[C@]3(O)C(O)=C(C(N)=O)C(=O)[C@@H](N(C)C)C3CC1C2 (stereo partly drawn) | 16

A = CN(C)c1cc(NC(=O)CNCc2ccccn2)c(O)c2c1CC1CC3[C@H](N(C)C)C(=O)C(C(N)=O)=C(O)[C@@]3(O)C(=O)C1=C2O (stereo partly drawn)
B = CCCCCCNCC(=O)Nc1cc(N(C)C)c2c(c1O)C(=O)C1=C(O)[C@]3(O)C(O)=C(C(N)=O)C(=O)[C@@H](N(C)C)C3CC1C2 (stereo partly drawn)
*Q* Field: lower recorded MIC (choose A or B ) To answer, give the label that identifies your chosen option.
*A* B
(B: 0.25 µg/mL, A: 16 µg/mL)

a = CN(C)c1cc(NC(=O)CNCc2ccccc2)c(O)c2c1CC1CC3[C@H](N(C)C)C(=O)C(C(N)=O)=C(O)[C@@]3(O)C(=O)C1=C2O (stereo partly drawn)
b = CN(C)c1cc(NC(=O)CNC2CCCC2)c(O)c2c1CC1CC3[C@H](N(C)C)C(=O)C(C(N)=O)=C(O)[C@@]3(O)C(=O)C1=C2O (stereo partly drawn)
*Q* Compare the recorded MIC of a and b ; state which is larger. To answer, give the label that identifies your chosen option.
*A* a

P = CN(C)c1cc(NC(=O)CN2CCCCC2)c(O)c2c1CC1CC3[C@H](N(C)C)C(=O)C(C(N)=O)=C(O)[C@@]3(O)C(=O)C1=C2O (stereo partly drawn)
Q = CN(C)c1cc(NC(=O)CN2CCCC2)c(O)c2c1CC1CC3[C@H](N(C)C)C(=O)C(C(N)=O)=C(O)[C@@]3(O)C(=O)C1=C2O (stereo partly drawn)
*Q* Field: lower recorded MIC (choose P or Q ) To answer, give the label that identifies your chosen option.
*A* Q
(Q: 0.25 µg/mL, P: 0.5 µg/mL)

1 = CN(C)c1cc(NC(=O)CNC2CCCCCCC2)c(O)c2c1CC1CC3[C@H](N(C)C)C(=O)C(C(N)=O)=C(O)[C@@]3(O)C(=O)C1=C2O (stereo partly drawn)
2 = CN(C)c1cc(NC(=O)CNCC2CC2)c(O)c2c1CC1CC3[C@H](N(C)C)C(=O)C(C(N)=O)=C(O)[C@@]3(O)C(=O)C1=C2O (stereo partly drawn)
*Q* Compare the recorded MIC of 1 and 2 ; state which is larger. To answer, give the label that identifies your chosen option.
*A* 1
(1: 4 µg/mL, 2: 0.5 µg/mL)

---

System: Staphylococcus aureus
Test: In vitro antibacterial activity against Staphylococcus aureus UBMS 90-1 Tet M
Format: functional
measured.attribute: MIC (µg/mL)

Some solved entries appear below for comparison.
molecule | unit.symbol | MIC
CN(C)c1cc(NC(=O)CNCC2CC2)c(O)c2c1CC1CC3[C@H](N(C)C)C(=O)C(C(N)=O)=C(O)[C@@]3(O)C(=O)C1=C2O (stereo not given in full) | µg/mL | 1
CN(C)c1cc(NC(=O)CNC(C)(C)C)c(O)c2c1C[C@H]1C[C@H]3[C@H](N(C)C)C(O)=C(C(N)=O)C(=O)[C@@]3(O)C(O)=C1C2=O | µg/mL | 0.12
CN(C)c1cc(NC(=O)CN2CCOCC2)c(O)c2c1CC1CC3[C@H](N(C)C)C(=O)C(C(N)=O)=C(O)[C@@]3(O)C(=O)C1=C2O (stereo not given in full) | µg/mL | 4
CCCNCC(=O)Nc1cc(N(C)C)c2c(c1O)C(=O)C1=C(O)[C@]3(O)C(O)=C(C(N)=O)C(=O)[C@@H](N(C)C)C3CC1C2 (stereo not given in full) | µg/mL | 0.5
CN(C)c1cc(NC(=O)CNCc2ccccn2)c(O)c2c1CC1CC3[C@H](N(C)C)C(=O)C(C(N)=O)=C(O)[C@@]3(O)C(=O)C1=C2O (stereo not given in full) | µg/mL | 8

I = CN(C)c1cc(NC(=O)CBr)c(O)c2c1CC1CC3[C@H](N(C)C)C(=O)C(C(N)=O)=C(O)[C@@]3(O)C(=O)C1=C2O (stereo not given in full)
II = CCCCCCCCCCCNCC(=O)Nc1cc(N(C)C)c2c(c1O)C(=O)C1=C(O)[C@]3(O)C(O)=C(C(N)=O)C(=O)[C@@H](N(C)C)C3CC1C2 (stereo not given in full)
*Q* Field: lower recorded MIC (choose I or II ) To answer, give the label that identifies your chosen option.
*A* I
(I: 1 µg/mL, II: 16 µg/mL)

---

Tested on: Escherichia coli
Assay: In vitro antibacterial activity against Escherichia coli J3272 Tet D
Type: functional
measured.attribute: MIC (µg/mL)

compound | MIC (µg/mL)
CNCC(=O)Nc1cc(N(C)C)c2c(c1O)C(=O)C1=C(O)[C@]3(O)C(O)=C(C(N)=O)C(=O)[C@@H](N(C)C)C3CC1C2 (stereo partly drawn) | 0.5

P = CN(C)c1cc(NC(=O)CBr)c(O)c2c1CC1CC3[C@H](N(C)C)C(=O)C(C(N)=O)=C(O)[C@@]3(O)C(=O)C1=C2O (stereo partly drawn)
Q = CN(C)c1cc(NC(=O)CNC(C)(C)C)c(O)c2c1C[C@H]1C[C@H]3[C@H](N(C)C)C(O)=C(C(N)=O)C(=O)[C@@]3(O)C(O)=C1C2=O
*Q* Field: lower recorded MIC (choose P or Q ) To answer, give the label that identifies your chosen option.
*A* Q

---

System: Escherichia coli
Assay: In vitro antibacterial activity against Escherichia coli J3272 Tet D
Format: functional
measured.attribute: MIC (µg/mL)

Some solved entries appear below for comparison.
compound | MIC / µg/mL
CN(C)c1cc(NC(=O)CNC2CC3CCC2C3)c(O)c2c1CC1CC3[C@H](N(C)C)C(=O)C(C(N)=O)=C(O)[C@@]3(O)C(=O)C1=C2O (some centres not stated) | 0.25
CCCCNCC(=O)Nc1cc(N(C)C)c2c(c1O)C(=O)C1=C(O)[C@]3(O)C(O)=C(C(N)=O)C(=O)[C@@H](N(C)C)C3CC1C2 (some centres not stated) | 0.25
CN(C)c1cc(NC(=O)CNC2CCCC2)c(O)c2c1CC1CC3[C@H](N(C)C)C(=O)C(C(N)=O)=C(O)[C@@]3(O)C(=O)C1=C2O (some centres not stated) | 0.12

a = CCCNCC(=O)Nc1cc(N(C)C)c2c(c1O)C(=O)C1=C(O)[C@]3(O)C(O)=C(C(N)=O)C(=O)[C@@H](N(C)C)C3CC1C2 (some centres not stated)
b = CN(C)c1ccc(O)c2c1C[C@H]1C[C@H]3[C@H](N(C)C)C(O)=C(C(N)=O)C(=O)[C@@]3(O)C(O)=C1C2=O
c = CN(C)c1cc(NC(=O)CNCC2CC2)c(O)c2c1CC1CC3[C@H](N(C)C)C(=O)C(C(N)=O)=C(O)[C@@]3(O)C(=O)C1=C2O (some centres not stated)
d = CN(C)c1cc(NC(=O)CNCc2ccccn2)c(O)c2c1CC1CC3[C@H](N(C)C)C(=O)C(C(N)=O)=C(O)[C@@]3(O)C(=O)C1=C2O (some centres not stated)
*Q* # sort list by recorded MIC, greatest to least // respond by listing labels in the order requested
*A* d, b, c, a

---

Test system: Staphylococcus aureus
Test: In vitro antibacterial activity against Staphylococcus aureus Smith sensitive
Assay type: functional
measured.attribute: MIC (µg/mL)

Some solved entries appear below for comparison.
compound | MIC [µg/mL]
CN(C)c1cc(NC(=O)CNCC2CC2)c(O)c2c1CC1CC3[C@H](N(C)C)C(=O)C(C(N)=O)=C(O)[C@@]3(O)C(=O)C1=C2O (some centres not stated) | 0.5
CN(C)c1cc(NC(=O)CNC2CCCCCCC2)c(O)c2c1CC1CC3[C@H](N(C)C)C(=O)C(C(N)=O)=C(O)[C@@]3(O)C(=O)C1=C2O (some centres not stated) | 0.5
CN(C)c1cc(NC(=O)CNC2CC3CCC2C3)c(O)c2c1CC1CC3[C@H](N(C)C)C(=O)C(C(N)=O)=C(O)[C@@]3(O)C(=O)C1=C2O (some centres not stated) | 0.25
CN(C)c1cc(NC(=O)CBr)c(O)c2c1CC1CC3[C@H](N(C)C)C(=O)C(C(N)=O)=C(O)[C@@]3(O)C(=O)C1=C2O (some centres not stated) | 0.5
CN(C)c1cc(NC(=O)CNCc2ccccn2)c(O)c2c1CC1CC3[C@H](N(C)C)C(=O)C(C(N)=O)=C(O)[C@@]3(O)C(=O)C1=C2O (some centres not stated) | 4

I = CN(C)c1cc(NC(=O)CNC2CCCC2)c(O)c2c1CC1CC3[C@H](N(C)C)C(=O)C(C(N)=O)=C(O)[C@@]3(O)C(=O)C1=C2O (some centres not stated)
II = CN(C)c1cc(NC(=O)CN2CCOCC2)c(O)c2c1CC1CC3[C@H](N(C)C)C(=O)C(C(N)=O)=C(O)[C@@]3(O)C(=O)C1=C2O (some centres not stated)
*Q* Compare the recorded MIC of I and II ; state which is larger. To answer, give the label that identifies your chosen option.
*A* II
(II: 2 µg/mL, I: 0.25 µg/mL)
